- assay target: UniProt P9WNS1
- Sequence (whole entry): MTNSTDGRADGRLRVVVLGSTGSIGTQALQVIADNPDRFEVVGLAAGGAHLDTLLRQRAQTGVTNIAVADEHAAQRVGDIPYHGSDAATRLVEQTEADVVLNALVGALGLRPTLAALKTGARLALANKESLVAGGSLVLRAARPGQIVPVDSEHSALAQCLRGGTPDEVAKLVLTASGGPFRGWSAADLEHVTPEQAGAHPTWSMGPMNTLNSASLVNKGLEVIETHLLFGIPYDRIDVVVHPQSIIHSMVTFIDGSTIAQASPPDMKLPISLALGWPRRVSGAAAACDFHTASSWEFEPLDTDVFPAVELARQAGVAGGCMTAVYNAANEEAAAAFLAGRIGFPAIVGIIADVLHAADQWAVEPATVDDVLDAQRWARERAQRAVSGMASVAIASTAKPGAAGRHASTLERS
- test: Inhibition of Mycobacterium tuberculosis DXR expressed in Escherichia coli BL21 CodonPlus (DE3)-RIL cells assessed as remaining activity using DOXP as substrate at 100 uM in presence of NADPH by UV-visible spectrophotometry relative to control
reported metric: Activity
Answer with the number, then the unit.

CC(=O)N(CCC(c1ccc(Cl)c(Cl)c1)P(=O)(O)O)OCc1ccc(C(C)C)cc1 (stereo not drawn) ... 80.9%

Prompt: Which Activity is reported for this compound? CC(=O)N(CCC(c1ccc(Cl)c(Cl)c1)P(=O)(O)O)OC(C)c1ccc(C(F)(F)F)cc1 (stereo not drawn)
Completion: 59.6%

Prompt: Next record, please: CC(=O)N(CCC(c1ccc(Cl)c(Cl)c1)P(=O)(O)O)OCc1ccc2ccccc2c1 (stereo not drawn)
Completion: 82.1%
